- Tested on: MCF7
- methodDescription: Cytotoxicity against human MCF7 cells after 48 hrs by sulforhodamine B assay
- Format: functional, cell-based
- cond: MCF7, 48 h
Reported IC50 values follow for various molecules

[
  {
    "structure": "C=C1C(=O)O[C@@H]2[C@H]1CC[C@H](C)[C@]1(O)[C@@H](n3cc(COc4ccccc4F)nn3)CC(=O)[C@@]21C",
    "experimentalTarget": "MCF7",
    "IC50, µM": 4.3
  },
  {
    "structure": "C=C1C(=O)O[C@@H]2[C@H]1CC[C@H](C)[C@]1(O)[C@@H](n3cc(COc4ccccc4C)nn3)CC(=O)[C@@]21C",
    "experimentalTarget": "MCF7",
    "IC50, µM": 3.7
  },
  {
    "structure": "C=C1C(=O)O[C@@H]2[C@H]1CC[C@H](C)[C@]1(O)[C@@H](n3cc(COc4ccc(Cl)cc4)nn3)CC(=O)[C@@]21C",
    "experimentalTarget": "MCF7",
    "IC50, µM": 7
  },
  {
    "structure": "C=C1C(=O)O[C@@H]2[C@H]1CC[C@H](C)[C@]1(O)[C@@H](n3cc(CNc4ccccc4C)nn3)CC(=O)[C@@]21C",
    "experimentalTarget": "MCF7",
    "IC50, µM": 15
  },
  {
    "structure": "C=C1C(=O)O[C@@H]2[C@H]1CC[C@H](C)[C@]1(O)[C@@H](n3cc(COc4ccccc4Br)nn3)CC(=O)[C@@]21C",
    "experimentalTarget": "MCF7",
    "IC50, µM": 3.4
  },
  {
    "structure": "C=C1C(=O)O[C@@H]2[C@H]1CC[C@H](C)[C@]1(O)[C@@H](n3cc(CNc4ccc(COC(F)(F)F)cc4)nn3)CC(=O)[C@@]21C",
    "experimentalTarget": "MCF7",
    "IC50, µM": 17
  },
  {
    "structure": "C=C1C(=O)O[C@@H]2[C@H]1CC[C@H](C)[C@]1(O)[C@@H](n3cc(CNc4ccccc4F)nn3)CC(=O)[C@@]21C",
    "experimentalTarget": "MCF7",
    "IC50, µM": 5.1
  },
  {
    "structure": "C=C1C(=O)O[C@@H]2[C@H]1CC[C@H](C)[C@]1(O)[C@@H](n3cc(COc4ccc(C(F)(F)F)cc4)nn3)CC(=O)[C@@]21C",
    "experimentalTarget": "MCF7",
    "IC50, µM": 13
  },
  {
    "structure": "C=C1C(=O)O[C@@H]2[C@H]1CC[C@H](C)[C@]1(O)[C@@H](n3cc(CNc4ccccc4Br)nn3)CC(=O)[C@@]21C",
    "experimentalTarget": "MCF7",
    "IC50, µM": 4.2
  },
  {
    "structure": "C=C1C(=O)O[C@@H]2[C@H]1CC[C@H](C)[C@]1(O)[C@@H](n3cc(COc4ccc(C)cc4)nn3)CC(=O)[C@@]21C",
    "experimentalTarget": "MCF7",
    "IC50, µM": 4.2
  },
  {
    "structure": "C=C1C(=O)O[C@@H]2[C@H]1CC[C@H](C)[C@]1(O)[C@@H](n3cc(CNn4ccc5cc(Br)ccc54)nn3)CC(=O)[C@@]21C",
    "experimentalTarget": "MCF7",
    "IC50, µM": 4.5
  },
  {
    "structure": "C=C1C(=O)O[C@@H]2[C@H]1CC[C@H](C)[C@]1(O)[C@@H](n3cc(CCc4ccccc4)nn3)CC(=O)[C@@]21C",
    "experimentalTarget": "MCF7",
    "IC50, µM": 16
  },
  {
    "structure": "C=C1C(=O)O[C@@H]2[C@H]1CC[C@H](C)[C@]1(O)[C@@H](n3cc(CNc4ccc(F)cc4)nn3)CC(=O)[C@@]21C",
    "experimentalTarget": "MCF7",
    "IC50, µM": 15
  },
  {
    "structure": "C=C1C(=O)O[C@@H]2[C@H]1CC[C@H](C)[C@]1(O)[C@@H](n3cc(COc4ccccc4Cl)nn3)CC(=O)[C@@]21C",
    "experimentalTarget": "MCF7",
    "IC50, µM": 9.7
  },
  {
    "structure": "C=C1C(=O)O[C@@H]2[C@H]1CC[C@H](C)[C@]1(O)[C@@H](n3cc(CCC)nn3)CC(=O)[C@@]21C",
    "experimentalTarget": "MCF7",
    "IC50, µM": 14
  },
  {
    "structure": "C=C1C(=O)O[C@@H]2[C@H]1CC[C@H](C)[C@]1(O)C=CC(=O)[C@@]21C",
    "experimentalTarget": "MCF7",
    "IC50, µM": 40.2
  },
  {
    "structure": "C=C1C(=O)O[C@@H]2[C@H]1CC[C@H](C)[C@]1(O)[C@@H](n3cc(COc4ccc(C(C)C)cc4C)nn3)CC(=O)[C@@]21C",
    "experimentalTarget": "MCF7",
    "IC50, µM": 32
  },
  {
    "structure": "C=C1C(=O)O[C@@H]2[C@H]1CC[C@H](C)[C@]1(O)[C@@H](n3cc(CNc4ccccc4OC)nn3)CC(=O)[C@@]21C",
    "experimentalTarget": "MCF7",
    "IC50, µM": 28
  },
  {
    "structure": "C=C1C(=O)O[C@@H]2[C@H]1CC[C@H](C)[C@]1(O)[C@@H](n3cc(COc4ccc5ccccc5c4)nn3)CC(=O)[C@@]21C",
    "experimentalTarget": "MCF7",
    "IC50, µM": 24
  },
  {
    "structure": "COc1cccc2c1C(=O)c1c(O)c3c(c(O)c1C2=O)C[C@@](O)(C(=O)CO)C[C@@H]3O[C@H]1C[C@H](N)[C@H](O)[C@H](C)O1",
    "experimentalTarget": "MCF7",
    "IC50, µM": 0.5
  },
  {
    "structure": "C=C1C(=O)O[C@@H]2[C@H]1CC[C@H](C)[C@]1(O)[C@@H](n3cc(COc4ccc(Br)cc4)nn3)CC(=O)[C@@]21C",
    "experimentalTarget": "MCF7",
    "IC50, µM": 16
  }
]

----------
- methodDescription: Cytotoxicity against human HCT15 cells after 48 hrs by sulforhodamine B assay
- Format: functional, cell-based
- cond: HCT-15, 48 h
Label MET when IC50 is strictly below 20 µM; otherwise label NOT MET.

[
  {
    "structure": "C=C1C(=O)O[C@@H]2[C@H]1CC[C@H](C)[C@]1(O)[C@@H](n3cc(COc4ccccc4C)nn3)CC(=O)[C@@]21C",
    "labelClass": "MET"
  },
  {
    "structure": "C=C1C(=O)O[C@@H]2[C@H]1CC[C@H](C)[C@]1(O)[C@@H](n3cc(COc4ccccc4F)nn3)CC(=O)[C@@]21C",
    "labelClass": "NOT MET"
  },
  {
    "structure": "C=C1C(=O)O[C@@H]2[C@H]1CC[C@H](C)[C@]1(O)[C@@H](n3cc(COc4ccc(C(C)C)cc4C)nn3)CC(=O)[C@@]21C",
    "labelClass": "NOT MET"
  },
  {
    "structure": "C=C1C(=O)O[C@@H]2[C@H]1CC[C@H](C)[C@]1(O)[C@@H](n3cc(COc4ccccc4Cl)nn3)CC(=O)[C@@]21C",
    "labelClass": "MET"
  }
]

----------
- Tested on: PC-3
- methodDescription: Cytotoxicity against human PC3 cells after 48 hrs by sulforhodamine B assay
- Format: functional, cell-based
- cond: PC-3, 48 h
Exam item: assign 1 to entries whose IC50 is below 6 µM and 0 to entries at or above 6 µM. Note that a value of exactly 6 µM receives 0.

[
  {
    "structure": "C=C1C(=O)O[C@@H]2[C@H]1CC[C@H](C)[C@]1(O)[C@@H](n3cc(COc4ccc5ccccc5c4)nn3)CC(=O)[C@@]21C",
    "labelClass": 1
  },
  {
    "structure": "C=C1C(=O)O[C@@H]2[C@H]1CC[C@H](C)[C@]1(O)[C@@H](n3cc(COc4ccc(Br)cc4)nn3)CC(=O)[C@@]21C",
    "labelClass": 1
  },
  {
    "structure": "C=C1C(=O)O[C@@H]2[C@H]1CC[C@H](C)[C@]1(O)[C@@H](n3cc(COc4ccc(C(F)(F)F)cc4)nn3)CC(=O)[C@@]21C",
    "labelClass": 0
  },
  {
    "structure": "C=C1C(=O)O[C@@H]2[C@H]1CC[C@H](C)[C@]1(O)[C@@H](n3cc(COc4ccc(C)cc4)nn3)CC(=O)[C@@]21C",
    "labelClass": 0
  },
  {
    "structure": "C=C1C(=O)O[C@@H]2[C@H]1CC[C@H](C)[C@]1(O)[C@@H](n3cc(COc4ccccc4Br)nn3)CC(=O)[C@@]21C",
    "labelClass": 1
  },
  {
    "structure": "C=C1C(=O)O[C@@H]2[C@H]1CC[C@H](C)[C@]1(O)[C@@H](n3cc(COc4ccccc4C)nn3)CC(=O)[C@@]21C",
    "labelClass": 0
  },
  {
    "structure": "C=C1C(=O)O[C@@H]2[C@H]1CC[C@H](C)[C@]1(O)[C@@H](n3cc(COc4ccc(Cl)cc4)nn3)CC(=O)[C@@]21C",
    "labelClass": 1
  },
  {
    "structure": "C=C1C(=O)O[C@@H]2[C@H]1CC[C@H](C)[C@]1(O)C=CC(=O)[C@@]21C",
    "labelClass": 0
  },
  {
    "structure": "C=C1C(=O)O[C@@H]2[C@H]1CC[C@H](C)[C@]1(O)[C@@H](n3cc(CCC)nn3)CC(=O)[C@@]21C",
    "labelClass": 0
  },
  {
    "structure": "C=C1C(=O)O[C@@H]2[C@H]1CC[C@H](C)[C@]1(O)[C@@H](n3cc(CNc4ccccc4F)nn3)CC(=O)[C@@]21C",
    "labelClass": 1
  },
  {
    "structure": "C=C1C(=O)O[C@@H]2[C@H]1CC[C@H](C)[C@]1(O)[C@@H](n3cc(COc4ccc(C(C)C)cc4C)nn3)CC(=O)[C@@]21C",
    "labelClass": 0
  },
  {
    "structure": "C=C1C(=O)O[C@@H]2[C@H]1CC[C@H](C)[C@]1(O)[C@@H](n3cc(CNc4ccccc4C)nn3)CC(=O)[C@@]21C",
    "labelClass": 1
  },
  {
    "structure": "C=C1C(=O)O[C@@H]2[C@H]1CC[C@H](C)[C@]1(O)[C@@H](n3cc(COc4ccccc4Cl)nn3)CC(=O)[C@@]21C",
    "labelClass": 1
  },
  {
    "structure": "C=C1C(=O)O[C@@H]2[C@H]1CC[C@H](C)[C@]1(O)[C@@H](n3cc(COc4ccccc4F)nn3)CC(=O)[C@@]21C",
    "labelClass": 1
  }
]
